- System: ABC-1
- experiment.notes: relative viability (nuclei count vs DMSO), 5 days (fraction); higher = more cells survive
- condition.details: first compound 0.01 µM
measurement.kind: relative viability
Output spec: single numeric token, no unit.

Look up relative viability for this compound: Cc1cn(-c2cc(NC(=O)c3ccc(C)c(Nc4nccc(-c5cccnc5)n4)c3)cc(C(F)(F)F)c2)cn1 [Nilotinib] + NC(=O)Nc1cc(-c2cccc(F)c2)sc1C(=O)N[C@H]1CCCNC1 [AZD7762] (partner 0.2 µM) 0.803

Look up relative viability for this compound: Cc1cn(-c2cc(NC(=O)c3ccc(C)c(Nc4nccc(-c5cccnc5)n4)c3)cc(C(F)(F)F)c2)cn1 [Nilotinib] + CS(=O)(=O)N1CCN(Cc2cc3nc(-c4cccc5[nH]ncc45)nc(N4CCOCC4)c3s2)CC1 [Pictilisib] (partner 1 µM) 0.788

Look up relative viability for this compound: Cc1cn(-c2cc(NC(=O)c3ccc(C)c(Nc4nccc(-c5cccnc5)n4)c3)cc(C(F)(F)F)c2)cn1 [Nilotinib] + CCNC(=O)c1noc(-c2cc(C(C)C)c(O)cc2O)c1-c1ccc(CN2CCOCC2)cc1 [Luminespib] (partner 0.01 µM) 0.554

Look up relative viability for this compound: Cc1cn(-c2cc(NC(=O)c3ccc(C)c(Nc4nccc(-c5cccnc5)n4)c3)cc(C(F)(F)F)c2)cn1 [Nilotinib] + Nc1ncn([C@H]2C[C@H](O)[C@@H](CO)O2)c(=O)n1 [Decitabine] (partner 2 µM) 1.05

---

- Test system: PC-3 [JPC-3]
- experiment.notes: relative viability (nuclei count vs DMSO), 5 days (fraction); higher = more cells survive
- condition.details: first compound 0.003162 µM
Task for the reader: assign each of the following compounds its reported relative viability.
Output spec: single numeric token, no unit.

Missing value: relative viability, PC-3 [JPC-3], entry Cc1cn(-c2cc(NC(=O)c3ccc(C)c(Nc4nccc(-c5cccnc5)n4)c3)cc(C(F)(F)F)c2)cn1 [Nilotinib] + CS(=O)(=O)N1CCN(Cc2cc3nc(-c4cccc5[nH]ncc45)nc(N4CCOCC4)c3s2)CC1 [Pictilisib] (partner 1 µM) . Fill in? 0.88

Missing value: relative viability, PC-3 [JPC-3], entry Cc1cn(-c2cc(NC(=O)c3ccc(C)c(Nc4nccc(-c5cccnc5)n4)c3)cc(C(F)(F)F)c2)cn1 [Nilotinib] + C[C@@H](Oc1cc(-c2cnn(C3CCNCC3)c2)cnc1N)c1c(Cl)ccc(F)c1Cl [Crizotinib] (partner 1 µM) . Fill in? 1.23

Missing value: relative viability, PC-3 [JPC-3], entry Cc1cn(-c2cc(NC(=O)c3ccc(C)c(Nc4nccc(-c5cccnc5)n4)c3)cc(C(F)(F)F)c2)cn1 [Nilotinib] + Cc1nc(Nc2ncc(C(=O)Nc3c(C)cccc3Cl)s2)cc(N2CCN(CCO)CC2)n1 [Dasatinib] (partner 0.075 µM) . Fill in? 1.09

Missing value: relative viability, PC-3 [JPC-3], entry Cc1cn(-c2cc(NC(=O)c3ccc(C)c(Nc4nccc(-c5cccnc5)n4)c3)cc(C(F)(F)F)c2)cn1 [Nilotinib] + COc1cccc2cc(-c3nc([C@H]4CC[C@H](C(=O)O)CC4)n4ncnc(N)c34)[nH]c12 [OSI-027] (partner 0.5 µM) . Fill in? 0.838

Missing value: relative viability, PC-3 [JPC-3], entry Cc1cn(-c2cc(NC(=O)c3ccc(C)c(Nc4nccc(-c5cccnc5)n4)c3)cc(C(F)(F)F)c2)cn1 [Nilotinib] + CC(C)C[C@H](NC(=O)[C@H](Cc1ccccc1)NC(=O)c1cnccn1)B(O)O [Bortezomib] (partner 0.002 µM) . Fill in? 0.88
